# targetEntity: T1, BMP-12 (UniProt Q7Z4P5 322-450, limits assumed)
# T1 construct: also called BMP12/GDF7
# T1 sequence (looked up): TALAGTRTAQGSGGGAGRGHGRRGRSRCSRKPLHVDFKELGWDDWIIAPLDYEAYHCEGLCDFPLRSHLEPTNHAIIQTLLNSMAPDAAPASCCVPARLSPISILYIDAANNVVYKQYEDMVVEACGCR
# experimentDescription: peptide resin, filter plate; load 5: 25 mM HEPES pH 7.0
No end group written: not given here.
recordedMetric: Flow-through conc (mg/mL)

# binder, Flow-through conc, mg/mL
rows = [
    ("Ac-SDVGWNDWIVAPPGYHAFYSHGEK [BMP2 N-trun 1S peptide 751]", 0.216),
    ("Ac-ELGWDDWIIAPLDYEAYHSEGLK [BMP12 N-trun_1S peptide 749]", 0.116),
    ("Ac-LYVSDVGWNDWIVK (not fully specified (residue 3); printed as Ac-LYV**SDVGWNDWIVK; also: ** after V3 not explained) [BMP2 C-trunc_2 peptide 746]", 0.162),
]
